Exercise: state measured ΔTm for each of the compounds provided.
# Test system: DNA
# experimentalDetails: Binding affinity to calf thymus DNA at 2 uM by thermal denaturation study
# Assay type: nucleic-acid assay
# conditionDetails: Bos taurus
Give bare numbers, in °C.

// input: 4 compounds below; output: ΔTm for each
1. COc1cc2nc(Nc3ccc(O)c(C[N+](C)(C)C)c3)nc(N)c2cc1OC
2. COc1cc2nc(Cl)nc(Nc3ccc(O)c(C[N+](C)(C)C)c3)c2cc1OC
3. C[N+](C)(C)Cc1cc(CCC(=O)NCCNC(=O)CCc2ccc(O)c(C[N+](C)(C)C)c2)ccc1O
4. COc1cc2nc(Nc3ccc(O)c(C[N+](C)(C)C)c3)nc(Nc3ccc(O)c(C[N+](C)(C)C)c3)c2cc1OC

[7.4, 5.8, 0.5, 8.6]
